assay_system: Voltage-gated potassium channel subunit beta-2 (Rattus norvegicus)
assay_info: KvBeta enzyme negative modulators, primary screen, biochemical, NADPH fluorescence (AID 622);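 further: slope of raw intensity against log time taken from 70 to 1610 s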
assay_conditions: recombinant KvBeta, 4-cyanobenzaldehyde reduction, at 10 µM, active compounds read high
Label Y when fluorescence slope is at or above -0.4; otherwise label N.

{"compound": "CC(C)Cc1nc(N2CCN(C(=O)c3ccco3)CC2)c(C#N)c2c1CCC2", "assay_system": "Voltage-gated potassium channel subunit beta-2 (Rattus norvegicus)", "assigned_label": "N"}
{"compound": "COc1ccc(-c2nc3n(c2Br)CCC3)cc1", "assay_system": "Voltage-gated potassium channel subunit beta-2 (Rattus norvegicus)", "assigned_label": "N"}
{"compound": "O=C(O)c1ccc(COc2c(F)c(F)c(F)c(F)c2F)o1", "assay_system": "Voltage-gated potassium channel subunit beta-2 (Rattus norvegicus)", "assigned_label": "N"}
{"compound": "CCN(CC)c1ccc2cc(-c3nnc(-c4ccncc4)o3)c(=O)oc2c1", "assay_system": "Voltage-gated potassium channel subunit beta-2 (Rattus norvegicus)", "assigned_label": "N"}
{"compound": "Cc1cccc(C)c1NC(=O)C1CCCCN1C (configuration not stated)", "assay_system": "Voltage-gated potassium channel subunit beta-2 (Rattus norvegicus)", "assigned_label": "N"}
{"compound": "CC(C[N+](C)(C)C)OC(N)=O (configuration not stated)", "assay_system": "Voltage-gated potassium channel subunit beta-2 (Rattus norvegicus)", "assigned_label": "N"}
{"compound": "CC(C)Cc1ccc(C(C)C(=O)O)cc1 (configuration not stated)", "assay_system": "Voltage-gated potassium channel subunit beta-2 (Rattus norvegicus)", "assigned_label": "N"}
{"compound": "CCOc1ccc2c(C)nc(NC3=NC(C)(C)C=C(C)N3)nc2c1", "assay_system": "Voltage-gated potassium channel subunit beta-2 (Rattus norvegicus)", "assigned_label": "Y"}
{"compound": "COc1ccc(NC(=O)Nc2cccc(C(=O)N3CCOCC3)c2)cc1OC", "assay_system": "Voltage-gated potassium channel subunit beta-2 (Rattus norvegicus)", "assigned_label": "N"}
{"compound": "COc1ccc(C(CC(=O)O)NC(=O)OC(C)(C)C)cc1 (configuration not stated)", "assay_system": "Voltage-gated potassium channel subunit beta-2 (Rattus norvegicus)", "assigned_label": "N"}
{"compound": "OC1CN=C2Sc3ccccc3N2C1 (configuration not stated)", "assay_system": "Voltage-gated potassium channel subunit beta-2 (Rattus norvegicus)", "assigned_label": "Y"}
